# System: TO-N3 (biotin conjugate)
# assay-overview: pull-down binding Z-score (relative to library population); higher = stronger binding
# cond: RNA library: Library-2
assay-endpoint: pull-down binding Z-score

seq-string | assay-endpoint | result
CCGCCCUCGUGUCUGUGGCGGUGG [hsa-mir-663a] | pull-down binding Z-score | 0.334

Give its pull-down binding Z-score value. Item: ACAAUAUGCUAUUAUAAUCGUAUGGCAUUGU [hsa-mir-2355]
-1.18

AUGGCUGAUCAAGCUAU [DMSMaPseq_invitro_SARS-CoV-2_Motif_216] , same question.
-0.208

What about `ACCUGCUCAGUAUGAACUUAAGCAUGGU` ?
-0.561

Please answer likewise for UUUCUGUUGUCUAAAAGAAAAGAAA [hsa-mir-527]
-0.383

Proceed to GGGUCCUAAGGUGUGUCCUC [hsa-mir-1976]
0.25

Similarly, AACAGCAGGAUUGGCUGUAGCUGUU [hsa-mir-2117] ?
0.185

Lookup GCCAUGGAAAGUAAUGGC [hsa-mir-548ax]
-0.269

Now give it for UGUCUUUUUUUUUUUCUGAGACA [hsa-mir-1273c] too.
-1.21

---

# Test system: TO-3-N3 (biotin conjugate)
# assay-overview: pull-down binding Z-score (relative to library population); higher = stronger binding
# cond: RNA library: Library-2
assay-endpoint: pull-down binding Z-score
Just the number.

State the recorded pull-down binding Z-score for this entry: CGAGAAGCGCCUGCGUCUCCCAUUUUCG [hsa-mir-3944]
0.199

Item: CUCUCAUCGAUCUCCAAGAACUUGGAAAGUAUGAGCAG [SHAPE_invitro_SARS-CoV-2_Motif_456]
-0.197

Could you do the same for CUUGCGGGGCCUUCGCCGCACACAAG [hsa-mir-99b] , please?
0.198

Then this sequence: UUGGUCCGUAUGUGUGGUGCCACCGG [hsa-mir-1908]
-0.202

---

# Test system: G-clamp-N3 (biotin conjugate)
# assay-overview: pull-down binding Z-score (relative to library population); higher = stronger binding
# cond: RNA library: Library-1 (pre-miRNA loops + repeats)
# pull-down binding Z-score annotations
Please reply with the number alone, leaving off any unit.

Worked cases, answers included:
seq-string | measured-target | recorded-number
GGUUCCCACGCCGCGGCAACC [hsa-mir-6776] | G-clamp-N3 (biotin conjugate) | -1.36
CUGUGCAGAACAUCCGCUCACCUGUACAG [hsa-mir-214] | G-clamp-N3 (biotin conjugate) | 0.104
AUAGCACAAAGUCUUAUGGUACUGU [hsa-mir-3169] | G-clamp-N3 (biotin conjugate) | 1.12

Let's switch to this sequence now.
Consider the sequence shown here: AUCUAUUCCAGAAGAU [hsa-mir-4696] What is its recorded pull-down binding Z-score?
1.53

---

# Test system: TO-3-N3-2 (biotin conjugate)
# assay-overview: pull-down binding Z-score (relative to library population); higher = stronger binding
# cond: RNA library: Library-2
assay-endpoint: pull-down binding Z-score
# answer = number (no unit)

Some solved cases for reference:
seq-string | pull-down binding Z-score
UUUGCCAUUACUUUCAGUGGCAAA [hsa-mir-548aq] | -0.894
AUUUAUGUGAACUAAAAUAUAAAU [hsa-mir-513b] | 0.14
AACGGGGCGGGCCUUGGGCGGGGUAA [G4_2A2_VEGF-Pu22-mt] | 10.6
CACCCGCGAAGAAGCUAUAAGACAUGUACGUGCAUGGAUUGGCUUCGAUGUCGAGGGGUG | -0.23
GAUGCUGUCUAUUCUAAAGGUAC [hsa-mir-101-1] | -0.32

Given the sequence GCGCUGCCAGAAACUGGCCCCAGCGC [bulge-CCC] , what is its reported pull-down binding Z-score?
-0.182

Can you check UGUAUUUUUCAGCAAGGCAAGGGCUUUGAUGUCUUGUA [hsa-mir-8065] next?
-0.132

Next: `CCAGUACCAGAGGUGAAAAUACUCAAUAAUUUGGGUGUGGACAUUGCUGCUAAUACUGUG`
0.266

Now give it for GGGCAGGGAGUCAGAGGGGACCGCCC [hsa-mir-4740] too.
1.93

Next record, please: GUUCUAAGUAUUGCUCCAAUAAUGUUCUCAAACAAAAUGGCGAGACUGGGAAAAGGGUAUAUGUUUGAGAGCAAGAGUAUGAAACUUAGAAC [IAV_invivo_PB1_2_Motif_18+IAV_invivo_PB1_2_Motif_18]
0.578

Now this one: UGGUUGAAUAUGUGAAUGGCAUCG [hsa-mir-449a]
0.0695

Then what about the sequence UUUUUCCAUUGUAAGUAAUGGGAAAA [hsa-mir-548f-5] ?
-0.567

Follow-up item: GAGCCCUUGCACACCACCAGCCUC [hsa-mir-6845]
0.134

And the next one, UAUUCUGAUGUCCAAGUGGAAA [hsa-mir-372] ?
-0.345

Same for UUCUUUGAGGAUCUGGCCUAAAGAG [hsa-mir-202]
0.362

Now the same for GAAACAUCUUUUAC [hsa-mir-4514]
-0.191

Can you check AUGGUUUAGAGUUACACCCUGGGAGUUAACUGU [hsa-let-7c] next?
0.565

Same question, CUUUGUGAUUUUAUGAGAACAAAG [hsa-mir-3173] this time
-0.486

What about this sequence? GCGCUGCCAGAAACUGGCUGAGCGC [bulge-UG]
-0.0129

Would you mind doing UCAAAAAGAAAUUGA [SHAPE_invivo_SARS-CoV-2_Motif_472] as well?
0.153

Now this one: `CCACGCACAUUGCUAACUAAGGGCACACUAGAACCAGAAUAUUUCAAUUCAGUGUGUAGACUUAUGAAAACUAUAGGUCCAGACAUGUUCCUCGGAACUUGUCGG`
-0.0669

Quick one: `AAAGUGCAGUGAAAAGAACAAUCAAGGGUACACACCACUGGUUGUUACUCACAAUUUUGACUUCACUUU`
-0.0864

Entry to check: GCAGCUGGAAUUCAAGCCCUGCUGC [hsa-mir-6882]
-0.319

Origin of measurements: the supplement of paper PMC11865577
